Tested on: phosphoCTD (S2) in HCT116 cells
Assay: Phospho-carboxyl terminal domain (Ser2) p-CTD (S2) cell based Acumen assay
Details: Homo sapiens, HCT-116, 4 h, read-out: relative IC50 for phosphoCTD (S2)
Reported IC50 is given for each of the following molecules.
PROPERTY_LABEL: IC50 (µM)

| MOLECULE | MEASUREMENT_TARGET | VALUE_REPORTED |
| --- | --- | --- |
| C=CC(=O)N1CCO[C@H](CN2CCC(Nc3cc(C(C)F)cn4c(C(C)C)cnc34)CC2)C1 (single isomer, unassigned) | phosphoCTD (S2) in HCT116 cells | 5.73 |
| C=CC(=O)N1CCO[C@H](CN2CCC(Nc3cc(C(F)(F)F)cn4c(C(C)C)cnc34)CC2)C1 | phosphoCTD (S2) in HCT116 cells | 2.59 |
| [2H]CC([2H])(C)c1cnc2c(NC3CCN(C[C@@H]4CN(C(=O)C=C)CCO4)CC3)cc(C(F)(F)F)cn12 (mixture of isomers) | phosphoCTD (S2) in HCT116 cells | 2.92 |
| [2H]C([2H])=C([2H])C(=O)N1CCO[C@H](CN2CCC(Nc3cc(C(F)(F)F)cn4c(C(C)C)cnc34)CC2)C1 | phosphoCTD (S2) in HCT116 cells | 3.79 |

###

Biological target: CDK7/CyclinH/Mat1 (Homo sapiens, UniProt P50613)
Sequence (P50613 whole entry): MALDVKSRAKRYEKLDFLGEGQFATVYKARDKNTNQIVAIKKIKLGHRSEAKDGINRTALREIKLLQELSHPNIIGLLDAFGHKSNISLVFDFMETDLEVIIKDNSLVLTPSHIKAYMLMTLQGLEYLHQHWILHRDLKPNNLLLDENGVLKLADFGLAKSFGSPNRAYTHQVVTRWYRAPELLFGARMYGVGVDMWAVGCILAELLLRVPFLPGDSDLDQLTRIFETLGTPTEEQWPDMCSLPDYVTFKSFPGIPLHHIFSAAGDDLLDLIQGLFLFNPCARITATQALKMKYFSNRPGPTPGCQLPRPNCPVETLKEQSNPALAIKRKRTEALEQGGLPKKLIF
Sequence (P51946 whole entry partner): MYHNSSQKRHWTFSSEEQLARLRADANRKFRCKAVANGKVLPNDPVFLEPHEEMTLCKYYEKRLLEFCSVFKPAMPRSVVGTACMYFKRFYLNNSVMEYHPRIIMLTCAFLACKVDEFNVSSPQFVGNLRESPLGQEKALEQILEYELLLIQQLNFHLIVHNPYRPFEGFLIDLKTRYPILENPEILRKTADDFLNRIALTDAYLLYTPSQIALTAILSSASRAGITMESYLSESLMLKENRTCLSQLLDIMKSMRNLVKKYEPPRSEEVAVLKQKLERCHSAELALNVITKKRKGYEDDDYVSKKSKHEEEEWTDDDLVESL
Sequence (P51948 whole entry partner): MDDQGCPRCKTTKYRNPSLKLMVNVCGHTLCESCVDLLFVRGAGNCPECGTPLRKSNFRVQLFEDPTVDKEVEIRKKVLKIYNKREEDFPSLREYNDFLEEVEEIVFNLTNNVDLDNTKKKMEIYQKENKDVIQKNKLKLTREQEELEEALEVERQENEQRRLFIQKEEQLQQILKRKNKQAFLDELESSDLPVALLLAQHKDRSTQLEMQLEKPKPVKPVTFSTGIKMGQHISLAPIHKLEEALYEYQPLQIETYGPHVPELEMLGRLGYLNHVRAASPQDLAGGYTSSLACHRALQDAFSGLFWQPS
Experiment: Biochemical assay for inhibition of CDK7/CyclinH/MAT1 (radiolabel filter binding)
Details: IC50 after 3 hours of preincubation of CDK7 enzyme, 3 hours preincubation; 100 µM ATP
Mark each entry yes if its IC50 sits below 10 nM, and no for all others.

| COMPOUND | MEASUREMENT_TARGET | ASSIGNED_CLASS |
| --- | --- | --- |
| C=CC(=O)N1CCO[C@H](CN2CCC(Nc3cc(C(C)F)cn4c(C(C)C)cnc34)CC2)C1 (single isomer, unassigned) [Example 2] | CDK7/CyclinH/Mat1 (Homo sapiens, UniProt P50613) | no |
| C=CC(=O)N1CCO[C@H](CN2CCC(Nc3cc(C(C)O)cn4c(C(C)C)cnc34)CC2)C1 (single isomer, unassigned) [Example 5] | CDK7/CyclinH/Mat1 (Homo sapiens, UniProt P50613) | no |
| [2H]CC([2H])(C)c1cnc2c(NC3CCN(C[C@@H]4CN(C(=O)C=C)CCO4)CC3)cc(C(F)(F)F)cn12 (mixture of isomers) | CDK7/CyclinH/Mat1 (Homo sapiens, UniProt P50613) | yes |
| C=CC(=O)N1CCO[C@H](CN2CCC(Nc3cc(C(C)O)cn4c(C(C)C)cnc34)CC2)C1 (single isomer, unassigned) [Example 4] | CDK7/CyclinH/Mat1 (Homo sapiens, UniProt P50613) | no |
| [2H]C([2H])=C([2H])C(=O)N1CCO[C@H](CN2CCC(Nc3cc(C(F)(F)F)cn4c(C(C)C)cnc34)CC2)C1 | CDK7/CyclinH/Mat1 (Homo sapiens, UniProt P50613) | yes |
| C=CC(=O)N1CCO[C@H](CN2CCC(Nc3cc(C(C)F)cn4c(C(C)C)cnc34)CC2)C1 (single isomer, unassigned) [Example 1] | CDK7/CyclinH/Mat1 (Homo sapiens, UniProt P50613) | no |
| C=CC(=O)N1CCO[C@H](CN2CCC(Nc3cc(C(F)(F)F)cn4c(C(C)C)cnc34)CC2)C1 | CDK7/CyclinH/Mat1 (Homo sapiens, UniProt P50613) | yes |
